PROTOCOL: Test Example 3: solubility in distilled water
Type: physicochemical
TEST CONTEXT: water
QUANTITY KIND: solubility

**Q:** Which solubility value is on record for CCCCCN1C=Nc2cccc3nc4c(c1c23)Cn1c-4cc2c(c1=O)COC(=O)[C@]2(O)CC [Reference compound 1, reference compound] ?
**A:** < 10 µg/mL

###

PROTOCOL: Test Example 3: solubility in distilled water
Type: physicochemical
TEST CONTEXT: distilled water; read-out: Solubility in distilled water
Counter-ions that a name gives are not always drawn.
Answer each item with its documented solubility.

| COMPOUND | ASSAY RESULT |
| --- | --- |
| CCCCCN1C=Nc2cccc3nc4c(c1c23)Cn1c-4cc2c(c1=O)COC(=O)[C@@]2(CC)OC(=O)CN(C)C(=O)CN.Cl | > 10000 µg/mL |
| CCCCCN1C=Nc2cccc3nc4c(c1c23)Cn1c-4cc2c(c1=O)COC(=O)[C@@]2(CC)OC(=O)OCCS(=O)(=O)C[C@H](N)C(=O)OC [Compound 6A, trifluoroacetic acid salt] | > 10000 µg/mL |

**Q:** Give the measured solubility of `CCCCCN1C=Nc2cccc3nc4c(c1c23)Cn1c-4cc2c(c1=O)COC(=O)[C@@]2(CC)OC(=O)CN(C)C(=O)CNC.Cl` .
**A:** > 10000 µg/mL
